Origin of the recorded values: patent US20240400616A1

tested-target: T1, Human Nectin-4 (residues Gly32-Ser349; NCBI RefSeq: NP_112178.2) with C-terminal FLAG tag, biotinylated (human, UniProt Q96NY8 32-349, randomly biotinylated with EZ-Link Sulfo-NHS-LC-LC-Biotin)
T1 construct: range 32-349; also called human Necin-4 protein; biotinylated Nectin-4; not shown: C-terminal FLAG tag
T1 sequence (looked up): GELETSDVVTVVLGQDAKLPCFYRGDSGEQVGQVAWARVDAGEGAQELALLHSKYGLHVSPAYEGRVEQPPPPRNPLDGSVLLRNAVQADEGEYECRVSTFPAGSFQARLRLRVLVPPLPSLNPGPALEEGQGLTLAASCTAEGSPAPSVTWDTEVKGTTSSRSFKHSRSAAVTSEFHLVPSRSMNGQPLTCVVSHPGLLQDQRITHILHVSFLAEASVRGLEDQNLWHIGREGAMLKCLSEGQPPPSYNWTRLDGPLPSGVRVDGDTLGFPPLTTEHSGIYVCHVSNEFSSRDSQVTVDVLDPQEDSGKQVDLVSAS
assay-overview: Biacore SPR, biotinylated Nectin-4 captured on streptavidin chip, peptide as analyte; n = 1
*1 amine or outer side, *2 acyl side, *3 side chain or, on linkers, in order; H or OH if unused. Bridges are numbered along the chain shown (N, C = ends). Where no end group is shown, it is not given here. [ ]: non-standard residue; d: D form. TATA = O=C(CC[*:1])N1CN(C(=O)CC[*:2])CN(C(=O)CC[*:3])C1; 1Nal = N[C@@H](Cc1cccc2ccccc12)C(=O)O; Hyp = O=C(O)[C@@H]1C[C@@H](O)CN1; hArg = N=C(N)NCCCC[C@H](N)C(=O)O; βAla = NCCC(=O)O; Sar = CNCC(=O)O
attribute-measured: pKd
The quantity pKd is defined as the negative base-10 logarithm of the molar concentration.

CPADCMRDWSTPPWC (core as printed Ci-P1-[1Nal]2-[dD]3-Cii-M4-[HArg]5-D6-W7-S8-T9-P10-[HyP]11-W12-Ciii (1Nal = 1-naphthylalanine, dD = D-Asp, HArg = homoarginine, HyP = hydroxyproline); Ci, Cii and Ciii covalently bound to the TATA scaffold, Bicyclic peptide) [BCY8116: (SEQ ID NO: 1), cyclised with TATA] :: 9.43

Now consider the entry below.
Supply measured pKd of Ac-[βAla][Sar][Sar][Sar][Sar][Sar]CP[1Nal][dD]CM[hArg]DWSTP[Hyp]WC (linker 7-11-21 via TATA, Bicyclic peptide) [BCY8122: Ac-[B-Ala][Sar5]-(SEQ ID NO: 1), cyclised with TATA] in your reply.
9.05
